# test.target: hFFA3 (Homo sapiens)
# Sequence (O14843 1-346): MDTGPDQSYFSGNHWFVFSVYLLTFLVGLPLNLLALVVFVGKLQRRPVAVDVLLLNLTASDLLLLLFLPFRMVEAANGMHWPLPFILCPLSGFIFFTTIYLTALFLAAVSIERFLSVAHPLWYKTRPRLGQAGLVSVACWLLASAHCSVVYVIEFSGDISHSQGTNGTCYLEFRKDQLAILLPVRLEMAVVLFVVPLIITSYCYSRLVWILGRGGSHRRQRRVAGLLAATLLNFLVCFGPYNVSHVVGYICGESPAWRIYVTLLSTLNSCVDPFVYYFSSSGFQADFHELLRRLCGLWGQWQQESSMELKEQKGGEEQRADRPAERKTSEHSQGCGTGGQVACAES
# measurement.protocol: cell-based
# reported.conditions: hFFA3; compound alone; mean of ≥3 independent experiments ± standard error
experimental.readout: cAMP pEC50
Please state the value as a number alone, without comment.

>>> obs_value("CC1=C(C#N)C(CC(C)C)C(C(=O)Nc2ccccc2C)=C(C)N1 (stereo not shown) [Compound 27]")
3.99
>>> obs_value("CC1=C(C(=O)Nc2ccccc2C)C(c2cc3ccccc3o2)C2=C(CCCC2=O)N1 (stereo not shown) [Compound 45]")
6.00
>>> obs_value("CC1=C(C(=O)Nc2cc(Cl)ccc2Cl)C(c2cncs2)C2=C(CCCC2=O)N1 (stereo not shown) [Compound 48]")
5.75

Request: Would you kindly share the measured cAMP pEC50 for CC1=C(C(=O)Nc2ccccc2C)C(c2cccs2)C2=C(CCCC2=O)N1 (stereo not shown) [Compound 4] ?
Result: 5.79

Request: Would you kindly share the measured cAMP pEC50 for CC1=C(C(=O)Nc2ccccc2C)C(c2ccc(Br)cc2)C2=C(CCCC2=O)N1 (stereo not shown) [Compound 7] ?
Result: 5.79

Request: What does the data say about its cAMP pEC50? Entry: CC1=C(C(=O)Nc2ccccc2C)C(c2cc(C)cs2)C2=C(CCCC2=O)N1 (stereo not shown) [Compound 43]
Result: 5.86

Request: If you can, please state the reported cAMP pEC50 value of CCCC1C(C(=O)Nc2ccccc2C)=C(C)NC2=C1C(=O)CCC2 (stereo not shown) [Compound 35] .
Result: 5.92

Request: Tell me the measured cAMP pEC50 of CCCCCC1C(C(=O)Nc2ccccc2C)=C(C)NC2=C1C(=O)CCC2 (stereo not shown) [Compound 37] , please.
Result: 5.60

Request: Look up cAMP pEC50: CC1=C(C(=O)Nc2cc(Cl)ccc2Cl)C(c2cocn2)C2=C(CCCC2=O)N1 (stereo not shown) [Compound 50]
Result: 5.78

Request: May I ask what cAMP pEC50 has been recorded for CC1=C(C(=O)Nc2ccccc2C)C(C2CCCCC2)C2=C(CCCC2=O)N1 (stereo not shown) [Compound 31] ?
Result: 5.26

Request: Recorded cAMP pEC50 of CC1=C(C(=O)Nc2ccccc2C)C(CCc2ccccc2)C2=C(CCCC2=O)N1 (stereo not shown) [Compound 38] , please.
Result: 4.21

Request: Please give the measured cAMP pEC50 for this molecule: CCc1ccc(C2C(C(=O)Nc3ccccc3C)=C(C)NC3=C2C(=O)CCC3)cc1 (stereo not shown) [Compound 11]
Result: 5.17

====

# test.target: hFFA3 (Homo sapiens)
# measurement.protocol: cell-based
# reported.conditions: cAMP assay together with propionate (56: 30 μM compound; 62, 63: 1 μM propionate)
# Method: The ligands were initially screened in a human FFA3-dependent [^35S]GTPγS binding assay as this assay reflects receptor-mediated activation of Gi/o proteins and is known to generally correlate well with ligand affinity.[30] […] HEK293 Flp-In T-Rex cells stably transfected with FFA3-eYFP receptors were incubated overnight with doxycycline to induce expression, then harvested, and cryopreserved. […] Reactions were measured using a PHERAstar FS plate reader (BMGLabtech, Aylesbury, UK).
experimental.readout: allosteric effect on propionate response

>>> obs_value("CC1=C(C(=O)Nc2cc(Cl)ccc2Cl)C(CC2CCN(C(=O)OC(C)(C)C)CC2)C2=C(CCCC2=O)N1 (centres unmarked) [Compound 56]")
"NAM"
>>> obs_value("CC1=C(C(=O)c2ccccc2)C(CC(C)C)C2=C(CCCC2=O)N1 (centres unmarked) [Compound 29]")
"PAM properties"
>>> obs_value("COC(=O)C1=C(C)NC2=C(C(=O)CCC2)C1CC(C)C (centres unmarked) [Compound 28]")
"PAM properties"
>>> obs_value("COC(=O)C1=C(C)NC(C)=C(C(=O)Nc2ccccc2C)C1CC(C)C (centres unmarked) [Compound 26]")
"PAM"

====

The entries below are paired with their reported Emax.
# test.target: hFFA3 (Homo sapiens)
# measurement.protocol: cell-based
# reported.conditions: HEK293, read-out: cAMP Emax
Just the number in %, nothing appended.

Request: Field request: Emax | item: CCCC1C(C(=O)Nc2cc(OC)ccc2Cl)=C(C)NC2=C1C(=O)CCC2 (stereo not drawn) [Compound 61]
Result: 96

Request: So what's the measured Emax for this one? CC1=C(C(=O)Nc2ccccc2C)C(c2cccn2C)C2=C(CCCC2=O)N1 (stereo not drawn) [Compound 41]
Result: 97

Request: Need Emax of CC1=C(C(=O)Nc2ccccc2Cl)C(CC(C)C)C2=C(CCCC2=O)N1 (stereo not drawn) [Compound 20] , thanks.
Result: 94

====

# test.target: hFFA3 (Homo sapiens)
# measurement.protocol: cell-based
# reported.conditions: cAMP assay in the presence of 1 μM propionate
Measured PAM pEC50 accompanies every entry in the list below.
# print the numeric value only

>>> obs_value("COC(=O)C1=C(C)NC2=C(C(=O)CCC2)C1CC(C)C (stereo not drawn)")
6.21

Request: Please report the recorded PAM pEC50 for CCCCC1C(C(=O)Nc2ccccc2C)=C(C)NC2=C1C(=O)CCC2 (stereo not drawn) .
Result: 6.58

Request: Any idea what its PAM pEC50 is? The compound is CCCC1C(C(=O)Nc2ccccc2C)=C(C)NC2=C1C(=O)CCC2 (stereo not drawn)
Result: 6.16

Request: Could you tell me which PAM pEC50 is on file for CC1=C(C(=O)Nc2ccccc2C)C(CC(C)C)C2=C(CCCC2=O)N1 (stereo not drawn) ?
Result: 6.28

====

# test.target: hFFA3 (Homo sapiens, UniProt O14843)
# measurement.protocol: cell-based
# reported.conditions: hFFA3; compound alone; mean of ≥3 independent experiments ± standard error
experimental.readout: cAMP pEC50
Quick one: just the number, no unit, thanks!

>>> obs_value("CCC(C)C1C(C(=O)Nc2ccccc2C)=C(C)NC2=C1C(=O)CCC2 (stereo not drawn)")
5.00

Pending compound:
Request: Bench note: what cAMP pEC50 did CC1=C(C(=O)Nc2c(F)cccc2F)C(CC(C)C)C2=C(CCCC2=O)N1 (stereo not drawn) show?
Result: 4.98

====

# test.target: hFFA3 (Homo sapiens)
# measurement.protocol: cell-based
# reported.conditions: hFFA3; compound alone; mean of ≥3 independent experiments ± standard error
Here, each record is paired with measured cAMP pEC50 data.
No unit in the answer, only the number.

Please review the following examples before continuing.
>>> obs_value("CC1=C(C(=O)Nc2ccccc2C)C(c2ccc(C)o2)C2=C(CCCC2=O)N1 (stereo not shown)")
5.96
>>> obs_value("CC1=C(C(=O)Nc2ccccc2C)C(c2ccccc2)C2=C(CCCC2=O)N1 (stereo not shown)")
5.91

Request: For the compound shown here, CCCC1C(C(=O)Nc2ccccc2Cl)=C(C)NC2=C1C(=O)CCC2 (stereo not shown) , give the reported cAMP pEC50.
Result: 6.06

====

# measurement.protocol: log D7.4 measurement
# Type: physicochemical
# reported.conditions: pH 7.4; read-out: logD7.4
# Description: Solubility and log D7.4 measurements were performed in accordance to the previously published procedures.[35]
Rule for this label: fulfilled means logD at 24 h is less than 4; not fulfilled means logD at 24 h is at least 4.

>>> category_label("CCCC1C(C(=O)Nc2cc(C)ccc2Cl)=C(C)NC2=C1C(=O)CCC2 (centres unmarked) [Compound 60]")
"fulfilled"
>>> category_label("CCCC1C(C(=O)Nc2cccc(Cl)c2)=C(C)NC2=C1C(=O)CCC2 (centres unmarked) [Compound 59]")
"fulfilled"
>>> category_label("CC1=C(C(=O)Nc2cc(Cl)ccc2Cl)C(c2cncs2)C2=C(CCCC2=O)N1 (centres unmarked) [Compound 48]")
"fulfilled"

Request: Lab log: compare recorded logD at 24 h with 4; is it strictly lower for CC1=C(C(=O)Nc2cc(Cl)ccc2Cl)C(c2cocn2)C2=C(CCCC2=O)N1 (centres unmarked) [Compound 50] ?
Result: fulfilled

Request: Check if logD at 24 h falls below 4 for CCCC1C(C(=O)Nc2cc(Cl)ccc2Cl)=C(C)NC2=C1C(=O)CCC2 (centres unmarked) [Compound 57] .
Result: not fulfilled

====

This section presents compounds with their documented cAMP pEC50 values.
# test.target: UniProtKB O14843
# measurement.protocol: cell-based
# reported.conditions: hFFA3; compound alone; mean of ≥3 independent experiments ± standard error
Simply state the number, no unit and no words.

>>> obs_value("CC1=C(C(=O)Nc2ccccc2C)C(c2csc3ccccc23)C2=C(CCCC2=O)N1 (stereo not shown)")
5.11
>>> obs_value("CC1=C(C(=O)Nc2cc(Cl)ccc2Cl)C(c2ncco2)C2=C(CCCC2=O)N1 (stereo not shown)")
6.72
>>> obs_value("CCCC1C(C(=O)Nc2cc(OC)ccc2Cl)=C(C)NC2=C1C(=O)CCC2 (stereo not shown)")
5.96
>>> obs_value("CC1=C(C(=O)Nc2ccc(C)cc2)C(c2ccco2)C2=C(CCCC2=O)N1 (stereo not shown)")
6.16
>>> obs_value("CCCCC1C(C(=O)Nc2ccccc2C)=C(C)NC2=C1C(=O)CCC2 (stereo not shown)")
5.86

Request: Entry CC1=C(C(=O)Nc2cccc(C)c2)C(c2ccco2)C2=C(CCCC2=O)N1 (stereo not shown) , system UniProtKB O14843: what cAMP pEC50 was measured?
Result: 5.80

Request: cAMP pEC50, test system UniProtKB O14843, entry CCC1=C(C(=O)Nc2ccccc2C)C(c2ccco2)C2=C(CCCC2=O)N1 (stereo not shown)
Result: 5.47

Request: Lab request: please report cAMP pEC50 under test system UniProtKB O14843 for CC1=C(C(=O)Nc2cc(Cl)ccc2Cl)C(CCn2cccn2)C2=C(CCCC2=O)N1 (stereo not shown)
Result: 4.95

Request: I'm curious: which cAMP pEC50 was measured for CCCC1C(C(=O)Nc2cc(Cl)ccc2Cl)=C(C)NC2=C1C(=O)CCC2 (stereo not shown) tested on UniProtKB O14843?
Result: 6.84

Request: cAMP pEC50 of CC1=C(C(=O)Nc2ccccc2Cl)C(CC(C)C)C2=C(CCCC2=O)N1 (stereo not shown) on UniProtKB O14843?
Result: 6.15
